Target: human α2β3γ2 GABAARs (benzodiazepine site) (Homo sapiens (Human), UniProt P18507+P47869)
Sequence (P47869 29-451): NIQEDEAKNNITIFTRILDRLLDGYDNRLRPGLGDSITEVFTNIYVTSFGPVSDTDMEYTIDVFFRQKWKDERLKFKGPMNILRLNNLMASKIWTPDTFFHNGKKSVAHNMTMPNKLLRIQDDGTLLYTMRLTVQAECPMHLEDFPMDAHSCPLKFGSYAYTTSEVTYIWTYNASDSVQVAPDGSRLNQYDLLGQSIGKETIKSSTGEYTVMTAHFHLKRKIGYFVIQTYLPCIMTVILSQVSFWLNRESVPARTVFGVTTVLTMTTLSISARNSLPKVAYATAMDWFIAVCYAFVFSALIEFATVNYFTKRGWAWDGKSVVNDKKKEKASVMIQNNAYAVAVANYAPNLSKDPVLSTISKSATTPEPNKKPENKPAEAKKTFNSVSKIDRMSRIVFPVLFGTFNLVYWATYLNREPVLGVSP
Sequence (P28472 26-473 partner): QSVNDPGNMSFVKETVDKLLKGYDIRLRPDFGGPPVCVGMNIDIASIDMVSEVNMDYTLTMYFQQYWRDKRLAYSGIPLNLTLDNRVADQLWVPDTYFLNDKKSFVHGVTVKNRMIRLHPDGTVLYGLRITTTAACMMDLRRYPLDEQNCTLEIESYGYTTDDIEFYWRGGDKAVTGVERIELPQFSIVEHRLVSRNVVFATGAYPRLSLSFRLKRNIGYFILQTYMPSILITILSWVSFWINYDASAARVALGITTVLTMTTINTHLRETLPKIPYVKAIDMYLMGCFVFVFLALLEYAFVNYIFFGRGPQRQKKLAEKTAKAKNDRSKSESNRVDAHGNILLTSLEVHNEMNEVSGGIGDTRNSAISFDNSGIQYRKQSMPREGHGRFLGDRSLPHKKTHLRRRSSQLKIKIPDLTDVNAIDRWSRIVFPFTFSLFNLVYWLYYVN
Sequence (P18507 40-475): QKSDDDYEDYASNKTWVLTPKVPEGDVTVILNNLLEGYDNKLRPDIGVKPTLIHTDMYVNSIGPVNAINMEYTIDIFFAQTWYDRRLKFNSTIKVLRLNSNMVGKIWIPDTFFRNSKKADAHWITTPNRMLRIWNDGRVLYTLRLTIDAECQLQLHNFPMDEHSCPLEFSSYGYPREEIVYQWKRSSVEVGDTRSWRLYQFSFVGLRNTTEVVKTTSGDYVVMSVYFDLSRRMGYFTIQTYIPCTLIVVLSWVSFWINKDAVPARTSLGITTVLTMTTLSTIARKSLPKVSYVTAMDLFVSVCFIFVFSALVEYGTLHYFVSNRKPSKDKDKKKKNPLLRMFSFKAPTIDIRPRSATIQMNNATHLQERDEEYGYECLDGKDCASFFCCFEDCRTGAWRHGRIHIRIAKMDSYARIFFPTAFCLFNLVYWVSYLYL
Experiment: In vitro radioligand binding assay ([3H]Ro15-1788 displacement), α2-GABAAR Ki
Where a name gives a salt, the structure may show the parent alone.
Provide the recorded log10(Ki) for the entries that follow.
Record value = log10 of Ki given in nM.

Exercise: Fill in the blank: the reported log10(Ki) of `CCCNC(=O)c1c(N)c2cccc(-c3cc(CN4CC5(CCN(C)CC5)C4)ccc3F)c2[nH]c1=O` is ____.
Key: 0.27

Exercise: Fill in the blank: the reported log10(Ki) of `CCCNC(=O)c1c(N)c2cccc(-c3cc(OCc4noc(C)n4)ccc3F)c2[nH]c1=O` is ____.
Key: -0.19

Exercise: Fill in the blank: the reported log10(Ki) of `CCCNC(=O)c1c(N)c2cccc(-c3cc(OCc4cccc(OC)n4)ccc3F)c2[nH]c1=O` is ____.
Key: 0.19

Exercise: Fill in the blank: the reported log10(Ki) of CCCNC(=O)c1c(N)c2cccc(-c3cc(OCc4cn(C)cn4)ccc3F)c2[nH]c1=O [Example 126, hydrochloride] is ____.
Key: 0.08

Exercise: Fill in the blank: the reported log10(Ki) of `CCCNC(=O)c1c(N)c2cccc(-c3cc(OCc4ccc(F)cn4)ccc3C)c2[nH]c1=O` is ____.
Key: 0.21

Exercise: Fill in the blank: the reported log10(Ki) of `CCCNC(=O)c1c(N)c2cccc(-c3ccncc3)c2[nH]c1=O` is ____.
Key: 0.52

Exercise: Fill in the blank: the reported log10(Ki) of `CCCNC(=O)c1c(N)c2cccc(-c3cc(OCc4ncccc4C)ccc3F)c2[nH]c1=O` is ____.
Key: 0.23

Exercise: Fill in the blank: the reported log10(Ki) of `CCCNC(=O)c1c(N)c2cccc(-c3cncc(OC)c3)c2[nH]c1=O` is ____.
Key: 0.36

Exercise: Fill in the blank: the reported log10(Ki) of `COc1ccncc1-c1cccc2c(N)c(C(=O)NC3CC3)c(=O)[nH]c12` is ____.
Key: 1.87

Exercise: Fill in the blank: the reported log10(Ki) of `CCCNC(=O)c1c(N)c2cccc(-c3ncc(F)cc3F)c2[nH]c1=O` is ____.
Key: -0.06

Exercise: Fill in the blank: the reported log10(Ki) of `COc1ccncc1-c1cccc2c(N)c(C(=O)NCC(C)(F)F)c(=O)[nH]c12` is ____.
Key: 1.74

Exercise: Fill in the blank: the reported log10(Ki) of `CCCNC(=O)c1c(N)c2cccc(-c3cc(OCc4ccc(C)nc4)ccc3F)c2[nH]c1=O` is ____.
Key: -0.23

Exercise: Fill in the blank: the reported log10(Ki) of `CCCNC(=O)c1c(N)c2cccc(-c3cccc(OCc4ccccn4)c3)c2[nH]c1=O` is ____.
Key: 0.25

----------
Target: human α2β3γ2 GABAARs (benzodiazepine site) (Homo sapiens (Human), UniProt P18507+P47869)
Assay: In vitro radioligand binding assay ([3H]Ro15-1788 displacement), α2-GABAAR Ki
Define the label as true when Ki is strictly less than 2 nM and as false in all remaining cases.

Exercise: Criterion: Ki strictly below 2 nM. Is it met by COc1ccncc1-c1cccc2c(N)c(C(=O)NCCC(F)(F)F)c(=O)[nH]c12 [Example 69] ?
Key: false

Exercise: Criterion: Ki strictly below 2 nM. Is it met by CCCNC(=O)c1c(N)c2cccc(-c3cncc(OC4CC4)c3)c2[nH]c1=O [Example 28] ?
Key: false

Exercise: Criterion: Ki strictly below 2 nM. Is it met by CCCNC(=O)c1c(N)c2cccc(-c3cc(OCc4cccnc4C#N)ccc3F)c2[nH]c1=O [Example 109] ?
Key: true

Exercise: Criterion: Ki strictly below 2 nM. Is it met by CCCNC(=O)c1c(N)c2cccc(-c3cn(C)nc3C)c2n(C)c1=O [Example 80] ?
Key: false

Exercise: Criterion: Ki strictly below 2 nM. Is it met by CCCNC(=O)c1c(N)c2cccc(-c3cc(OCc4ccc5[nH]cnc5c4)ccc3F)c2[nH]c1=O [Example 133] ?
Key: true

Exercise: Criterion: Ki strictly below 2 nM. Is it met by CCCNC(=O)c1c(N)c2cccc(-c3cc(OCc4scnc4C)ccc3F)c2[nH]c1=O [Example 117] ?
Key: true

Exercise: Criterion: Ki strictly below 2 nM. Is it met by CCCNC(=O)c1c(N)c2cccc(-c3cc(OCc4ccc(OC)cn4)ccc3F)c2[nH]c1=O [Example 96] ?
Key: true
